- Tested on: DCAMKL3;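 also: KINOMEscan kinase panel screen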
- Construct: gene DCLK3
- condition notes: concentration: 1 μM, replicates: in singlicate; n = 1
readout: %Inh (%)
Dear colleague, please return just the value in %, with no unit written.

Below: 2 molecules and their reported %Inh.
Cc1ccc(C(=O)N2CC[C@@H](O)C2)cc1-n1c(C)cc(OCc2ccc(F)cc2F)c(Br)c1=O :: 0
COc1cc(Nc2nccc(N3CCC(NC(=O)c4cc5ccccc5s4)C3)n2)cc(OC)c1OC (stereo not shown) [GSK1379760] :: 0

INPUT: Return %Inh for the following molecule: Cl.c1ccc(-c2ccc3c(Nc4ccc5[nH]ncc5c4)ccnc3c2)nc1 [GW440137]
OUTPUT: 0

INPUT: Return %Inh for the following molecule: Cc1ccc(C)c(NC(=O)NC2CCN(c3ccnc(Nc4ccc(F)cc4)n3)C2)c1 (stereo not shown) [GSK1379720]
OUTPUT: 3
